# Tested on: HT29 cells
# experimentDescription: Necroptosis inhibition in HT29 cell assay (TNF-α/Smac mimetic/z-VAD induced, cell viability)
# Assay type: cell-based
# conditionSummary: Homo sapiens, HT-29, 1 h pre-treatment with compound, then TNF-α 40 ng/mL + Smac mimetic 100 nM + z-VAD 20 μM for 48 hours
Counter-ions that a name gives are not always drawn.
parameterMeasured: IC50 (nM)
The figure you give is taken to be in nM; do not add the unit.

Name the reported IC50 value associated with the compound CNCC(C)OC(=O)n1ccc2ncc(-c3ccc4nc(NC(=O)C5CC5)sc4c3)cc21 (stereo not shown) [Compound C36, hydrochloride salt]
16000

Check `O=C(Nc1nc2ccc(-c3cnc4cnn(C(=O)OC5CCOCC5)c4c3)cc2s1)C1CC1` too.
4100

And `CCOC(=O)Nc1nc2ccc(-c3cnc4snc(C(=O)NC5CCCCC5)c4c3)cc2s1` ?
3.1

How about this compound: CNCC(C)NC(=O)c1nsc2ncc(-c3ccc4nc(NC(=O)C5CC5)sc4c3)cc12 (stereo not shown)
1400

---

# System: HT29 cells
# experimentDescription: Necroptosis inhibition in HT29 cell assay (TNF-α/Smac mimetic/z-VAD induced, cell viability)
# Format: cell-based
# conditionSummary: Homo sapiens, HT-29, 1 h pre-treatment with compound, then TNF-α 40 ng/mL + Smac mimetic 100 nM + z-VAD 20 μM for 48 hours
parameterMeasured: log10 of IC50 (log10 of the value in nM)
Field: value | Transform: log10 | Quantity: IC50 | Unit: nM

Param item = `O=C(Nc1cn2cc(-c3cnc4ccn(C(=O)OC5CCCCC5)c4c3)ccc2n1)C1CC1` ; retrieve measured log10 of IC50.
1.20

Same lookup for `O=C(NC1CCOCC1)c1nsc2ncc(-c3ccc4nc(NC(=O)C5CC5)cn4c3)cc12` , please.
2.20

Query `O=C(NC1CCC(F)(F)CC1)c1csc2ncc(-c3ccc4nc(NC(=O)C5CC5)sc4c3)cc12` next
0.26

Now this one: `O=C(Nc1nc2ccc(-c3cnc4ccn(C(=O)OC5CCOCC5)c4c3)cc2s1)C1CC1`
0.75

Then `O=C(NC1CCCCC1)c1csc2ncc(-c3ccc4nc(NC(=O)C5CC5)sc4c3)cc12` ?
0.00

Another compound to check: `O=C(Nc1nc2ccc(-c3cnc4ccn(C(=O)CC5CCOCC5)c4c3)cc2s1)C1CC1`
2.64

Now the compound `O=C(Nc1nc2ccc(-c3cnc4ccn(C(=O)OC5CCCCC5)c4c3)cc2s1)C1CC1`
0.85

Would you kindly repeat that for `O=C(NC1CCCCC1)c1csc2ncc(-c3ccc4nc(NC(=O)C5CC5)cn4c3)cc12` ?
0.30

Further, for `CCOC(=O)Nc1nc2ccc(-c3cnc4scc(C(=O)NC5CCCCC5)c4c3)cc2s1` ?
1.68

// same read-out, input: `O=C(NC1CCOCC1)c1c[nH]c2ncc(-c3ccc4nc(NC(=O)C5CC5)sc4c3)cc12`
3.72

Can you check `O=C(Nc1nc2ccc(-c3cnc4ccn(C(=O)OC5CCOCC5)c4c3)nc2s1)C1CC1` next?
0.98

And for `CNC(=O)Nc1nc2ccc(-c3cnc4ccn(C(=O)OC5CCCCC5)c4c3)cc2s1` ?
1.40

Okay, and `O=C(Nc1cn2cc(-c3cnc4ccn(C(=O)OC5CCOCC5)c4c3)ccc2n1)C1CC1` ?
1.75

Moving on to the next compound: `CC(=O)Nc1nc2ccc(-c3cnc4ccn(C(=O)OC5CCCCC5)c4c3)cc2s1`
1.63

Follow-up entry: `O=C(NC1CCOCC1)c1cccc2ncc(-c3ccc4nc(NC(=O)C5CC5)sc4c3)cc12`
4.11

One more compound: `O=C(NC1CCC(F)(F)CC1)c1nsc2ncc(-c3ccc4nc(NC(=O)C5CC5)sc4c3)cc12`
1.00

---

# Test system: HT29 cells
# experimentDescription: Necroptosis inhibition in HT29 cell assay (TNF-α/Smac mimetic/z-VAD induced, cell viability)
# Assay type: cell-based
# conditionSummary: Homo sapiens, HT-29, 1 h pre-treatment with compound, then TNF-α 40 ng/mL + Smac mimetic 100 nM + z-VAD 20 μM for 48 hours
Provide the recorded log10 of IC50 for the entries that follow.
In plain terms, each number is the log10 of measured IC50 in µM.

Quick check: log10 of IC50 of CCC(=O)Nc1nc2ccc(-c3cnc4ccn(C(=O)OC5CCCCC5)c4c3)cc2s1 [Compound C26] ?
-1.30

Item: CNC(=O)Nc1nc2ccc(-c3cnc4scc(C(=O)NC5CCCCC5)c4c3)cc2s1 [Compound C20]
-2.80

What do you have for CCC(CC)NC(=O)c1nsc2ncc(-c3ccc4nc(NC(=O)C5CC5)sc4c3)cc12 [Compound C31] ?
-1.96

Now the molecule O=C(Nc1nc2ccc(-c3cnc4ccn(C(=O)NC5CCOCC5)c4c3)cc2s1)C1CC1 [Compound C21]
-1.66

Likewise for CNCC(C)NC(=O)c1csc2ncc(-c3ccc4nc(NC(=O)C5CC5)sc4c3)cc12 (stereo not shown) [Compound C28] ?
-0.42

Ok, now O=C(Nc1nc2ccc(-c3cnc4ccn(C(=O)OC5CCC(F)(F)CC5)c4c3)cc2s1)C1CC1 [Compound C4]
-1.08

Thanks! And CC(=O)Nc1nc2ccc(-c3cnc4snc(C(=O)NC5CCCCC5)c4c3)cc2s1 [Compound C22] ?
-1.46

Another molecule to check: O=C(Nc1nc2ccc(-c3cnc4ccn(C(=O)NC5CCCCC5)c4c3)cc2s1)C1CC1 [Compound C33]
-2.34

Then this molecule: CCC(CC)NC(=O)c1csc2ncc(-c3ccc4nc(NC(=O)C5CC5)sc4c3)cc12 [Compound C37]
-2.49

Let us now turn to O=C(NC1CCOCC1)c1n[nH]c2ncc(-c3ccc4nc(NC(=O)C5CC5)sc4c3)cc12 [Compound C10]
1.08

Another molecule: CNC(=O)Nc1nc2ccc(-c3cnc4snc(C(=O)NC5CCCCC5)c4c3)cc2s1 [Compound C27]
-1.48

Entry to check: O=C(NC1CCOCC1)c1csc2ncc(-c3ccc4nc(NC(=O)C5CC5)sc4c3)cc12 [Compound C12]
-2.14

Record: CC(=O)Nc1nc2ccc(-c3cnc4scc(C(=O)NC5CCCCC5)c4c3)cc2s1 [Compound C19]
-1.96

// query: O=C(NC1CCOCC1)c1csc2ncc(-c3ccc4nc(NC(=O)C5CC5)cn4c3)cc12 [Compound C40]
-1.22

Now the same for O=C(Nc1nc2ccc(-c3cnc4ccn(C(=O)CC5CCCCC5)c4c3)cc2s1)C1CC1 [Compound C25]
-1.54

Now consider O=C(NC1CCCCC1)c1nsc2ncc(-c3ccc4nc(NC(=O)C5CC5)sc4c3)cc12 [Compound C23] and answer again.
-2.28

Another molecule to look at: O=C(NC1CCOCC1)c1nsc2ncc(-c3ccc4nc(NC(=O)C5CC5)sc4c3)cc12 [Compound C14]
-2.33

And what about the molecule CNC(=O)Nc1nc2ccc(-c3cnc4ccn(C(=O)OC5CCOCC5)c4c3)cc2s1 [Compound C7] ?
-1.49

Now the same for CN1CCC(NC(=O)c2nsc3ncc(-c4ccc5nc(NC(=O)C6CC6)sc5c4)cc23)CC1 [Compound C42]
0.48

What do you have for CC(=O)Nc1nc2ccc(-c3cnc4ncn(C(=O)OC5CCCCC5)c4c3)cc2s1 [Compound C2] ?
1.04

Another: CCOC(=O)Nc1nc2ccc(-c3cnc4ccn(C(=O)OC5CCCCC5)c4c3)cc2s1 [Compound C34]
-0.82

Consider next the molecule CCC(CC)OC(=O)n1ccc2ncc(-c3ccc4nc(NC(=O)C5CC5)sc4c3)cc21 [Compound C24] in the same way.
-1.48

---

# System: L929 mouse skin fibroblast cells
# experimentDescription: Necroptosis inhibition in L929 cell assay (TNF-α/z-VAD induced, cell viability by ATP levels)
# Assay type: cell-based
# conditionSummary: 1 h pre-treatment with compound, then TNF-α 40 ng/mL + z-VAD 20 μM for 48 hours
parameterMeasured: IC50 (µM)
The response must be a number in µM with no trailing unit.

Can you look up the measured IC50 of CN1C(=O)C(Cc2c[nH]c3ccccc23)NC1=S (stereo not shown) [Nec-1, reference compound] for me?
1.25
